biological target: USP7 (Homo sapiens, UniProt Q93009); construct: Full-length wild-type human USP7 and its catalytic mutant (cysteine 223 replaced by alanine, C223A) were produced as N-terminally His-tagged fusions; His (N); made in house; host or cells: Spodoptera frugiperda Sf9 (or High Five) insect cells, baculovirus pFastBac-HT-B; test: USP7 assay with GST-Ub52-Flag substrate (HTRF); assay type: biochemical; settings: USP7 200 pM
Sequence (Q93009 whole entry, the tested form may be a part): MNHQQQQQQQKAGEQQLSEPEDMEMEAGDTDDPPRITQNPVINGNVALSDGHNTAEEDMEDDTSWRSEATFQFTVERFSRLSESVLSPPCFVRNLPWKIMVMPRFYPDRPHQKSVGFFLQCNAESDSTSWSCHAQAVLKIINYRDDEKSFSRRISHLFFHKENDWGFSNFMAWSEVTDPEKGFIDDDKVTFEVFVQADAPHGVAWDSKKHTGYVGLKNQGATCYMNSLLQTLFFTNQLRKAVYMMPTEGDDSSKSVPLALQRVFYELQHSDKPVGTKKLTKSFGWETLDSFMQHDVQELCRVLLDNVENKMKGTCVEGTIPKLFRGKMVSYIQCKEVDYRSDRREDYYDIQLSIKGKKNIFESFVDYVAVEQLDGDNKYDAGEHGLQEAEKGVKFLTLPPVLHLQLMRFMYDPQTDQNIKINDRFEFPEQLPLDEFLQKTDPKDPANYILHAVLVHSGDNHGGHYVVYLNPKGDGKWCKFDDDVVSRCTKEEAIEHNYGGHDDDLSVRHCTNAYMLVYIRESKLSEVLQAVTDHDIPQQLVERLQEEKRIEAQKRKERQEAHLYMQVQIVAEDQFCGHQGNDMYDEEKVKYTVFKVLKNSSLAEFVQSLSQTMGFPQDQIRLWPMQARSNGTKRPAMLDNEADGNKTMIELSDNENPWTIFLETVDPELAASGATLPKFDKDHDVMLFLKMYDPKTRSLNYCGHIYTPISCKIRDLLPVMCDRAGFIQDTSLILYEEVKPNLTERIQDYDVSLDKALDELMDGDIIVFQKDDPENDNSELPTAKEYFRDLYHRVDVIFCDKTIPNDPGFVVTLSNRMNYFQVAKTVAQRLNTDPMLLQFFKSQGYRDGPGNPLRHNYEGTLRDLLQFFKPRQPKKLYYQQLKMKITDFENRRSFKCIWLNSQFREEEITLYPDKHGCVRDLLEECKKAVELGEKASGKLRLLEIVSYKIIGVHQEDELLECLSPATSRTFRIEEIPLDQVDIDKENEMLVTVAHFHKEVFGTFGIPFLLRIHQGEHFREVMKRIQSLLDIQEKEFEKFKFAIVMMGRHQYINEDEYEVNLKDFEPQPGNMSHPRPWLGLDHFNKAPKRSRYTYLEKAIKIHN

# COMPOUND, STUDY SYSTEM, IC50 [µM]
measured = [
    ("CN(C)CC(C)(C)CNC(=O)c1ccc2c(Cl)c3c(nc2c1)CCCC3 [Example 38]", "USP7 (Homo sapiens, UniProt Q93009)", 49.2),
    ("O=C(NCCN1CCCCCC1)c1ccc2c(Cl)c3c(nc2c1)CCCC3 [Example 27]", "USP7 (Homo sapiens, UniProt Q93009)", 15.4),
    ("O=C(NCC1CCN(Cc2ccccc2)CC1)c1ccc2c(Cl)c3c(nc2c1)CCCC3 [Example 32]", "USP7 (Homo sapiens, UniProt Q93009)", 17.6),
    ("CCN(CC)CCCC(C)NC(=O)c1ccc2c(Cl)c3c(nc2c1)CCCC3 (stereo not drawn) [Example 35]", "USP7 (Homo sapiens, UniProt Q93009)", 36.9),
    ("CCN1CCC[C@@H]1CNC(=O)c1ccc2c(Cl)c3c(nc2c1)CCCC3 [Example 36]", "USP7 (Homo sapiens, UniProt Q93009)", 44.4),
    ("O=C(NCCN1CCCCC1)c1ccc2c(Cl)c3c(nc2c1)CCCC3 [Example 28]", "USP7 (Homo sapiens, UniProt Q93009)", 11.9),
    ("CN1CCC(N2CCN(C(=O)c3ccc4c(Cl)c5c(nc4c3)CCCC5)CC2)CC1 [Example 30]", "USP7 (Homo sapiens, UniProt Q93009)", 23),
    ("O=C(NCCCN1CCc2ccccc2C1)c1ccc2c(Cl)c3c(nc2c1)CCCC3 [Example 39]", "USP7 (Homo sapiens, UniProt Q93009)", 38.5),
    ("O=C(c1ccc2c(Cl)c3c(nc2c1)CCCC3)N1CCCCC1 [Example 31]", "USP7 (Homo sapiens, UniProt Q93009)", 24.5),
]
